# Kd listing for each entry below
STUDY_TARGET: T1, Human Alpha-1 antitrypsin (AAT) (human, UniProt P01009 25-418)
T1 construct: Pure AAT in buffer, as used in the isotherm and breakthrough studies; also called α-1 antitrypsin; human AAT
T1 sequence (P01009 25-418 limits assumed): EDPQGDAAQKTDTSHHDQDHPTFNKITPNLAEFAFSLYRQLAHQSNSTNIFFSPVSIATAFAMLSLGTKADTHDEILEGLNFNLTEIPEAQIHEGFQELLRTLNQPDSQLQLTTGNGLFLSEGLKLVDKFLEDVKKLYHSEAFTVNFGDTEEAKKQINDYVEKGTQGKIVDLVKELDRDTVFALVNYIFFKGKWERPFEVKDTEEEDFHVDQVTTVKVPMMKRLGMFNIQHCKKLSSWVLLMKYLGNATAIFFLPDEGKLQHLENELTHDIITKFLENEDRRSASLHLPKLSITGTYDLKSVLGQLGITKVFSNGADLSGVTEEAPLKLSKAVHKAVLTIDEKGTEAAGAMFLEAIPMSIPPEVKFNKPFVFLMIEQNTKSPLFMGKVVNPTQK
ASSAY_EXPLANATION: static adsorption isotherm, pure AAT in PBS pH 7.4, Langmuir fit
No end group written: not given here.
OBSERVATION_TYPE: Kd (µM)

| BINDER | OBSERVATION_TYPE | DISPLAY_UNIT | RECORDED_VALUE |
| --- | --- | --- | --- |
| KHSKAIAAG-{Toyopearl AF‑Amino‑650M resin} (not fully specified; printed as KHSKAIAAG-Toyopearl) [KHSKAIAAG-Toyopearl] | Kd | µM | 3.62 |
| ANAKIKKKG-{Toyopearl AF‑Amino‑650M resin} (not fully specified; printed as ANAKIKKKG-Toyopearl) [ANAKIKKKG-Toyopearl] | Kd | µM | 6.7 |
| WHAKKSHFG-{Toyopearl AF‑Amino‑650M resin} (not fully specified; printed as WHAKKSHFG-Toyopearl) [WHAKKSHFG-Toyopearl] | Kd | µM | 0.95 |
| KFHAWNG-{Toyopearl AF‑Amino‑650M resin} (not fully specified; printed as KFHAWNG-Toyopearl) [KFHAWNG-Toyopearl] | Kd | µM | 2.48 |
| WHAKKSKFG-{Toyopearl AF‑Amino‑650M resin} (not fully specified; printed as WHAKKSKFG-Toyopearl) [WHAKKSKFG-Toyopearl] | Kd | µM | 2.09 |
| KWKHSHKWG-{Toyopearl AF‑Amino‑650M resin} (not fully specified; printed as KWKHSHKWG-Toyopearl) [KWKHSHKWG-Toyopearl] | Kd | µM | 0.63 |
| FSHHSWKFG-{Toyopearl AF‑Amino‑650M resin} (not fully specified; printed as FSHHSWKFG-Toyopearl) [FSHHSWKFG-Toyopearl] | Kd | µM | 3.63 |
| FEKWAKAHG-{Toyopearl AF‑Amino‑650M resin} (not fully specified; printed as FEKWAKAHG-Toyopearl) [FEKWAKAHG-Toyopearl] | Kd | µM | 4.67 |
| NHNKIHG-{Toyopearl AF‑Amino‑650M resin} [NHNKIHG-Toyopearl] | Kd | µM | 2.32 |
| SHWHWAG-{Toyopearl AF‑Amino‑650M resin} (not fully specified; printed as SHWHWAG-Toyopearl) [SHWHWAG-Toyopearl] | Kd | µM | 3.28 |
| AAHFHKG-{Toyopearl AF‑Amino‑650M resin} (not fully specified; printed as AAHFHKG-Toyopearl) [AAHFHKG-Toyopearl] | Kd | µM | 4.71 |
